Target desc: B-Raf (V600E)-kinase (Homo sapiens, UniProt P15056, V600E)
Sequence (P15056 whole entry V600E): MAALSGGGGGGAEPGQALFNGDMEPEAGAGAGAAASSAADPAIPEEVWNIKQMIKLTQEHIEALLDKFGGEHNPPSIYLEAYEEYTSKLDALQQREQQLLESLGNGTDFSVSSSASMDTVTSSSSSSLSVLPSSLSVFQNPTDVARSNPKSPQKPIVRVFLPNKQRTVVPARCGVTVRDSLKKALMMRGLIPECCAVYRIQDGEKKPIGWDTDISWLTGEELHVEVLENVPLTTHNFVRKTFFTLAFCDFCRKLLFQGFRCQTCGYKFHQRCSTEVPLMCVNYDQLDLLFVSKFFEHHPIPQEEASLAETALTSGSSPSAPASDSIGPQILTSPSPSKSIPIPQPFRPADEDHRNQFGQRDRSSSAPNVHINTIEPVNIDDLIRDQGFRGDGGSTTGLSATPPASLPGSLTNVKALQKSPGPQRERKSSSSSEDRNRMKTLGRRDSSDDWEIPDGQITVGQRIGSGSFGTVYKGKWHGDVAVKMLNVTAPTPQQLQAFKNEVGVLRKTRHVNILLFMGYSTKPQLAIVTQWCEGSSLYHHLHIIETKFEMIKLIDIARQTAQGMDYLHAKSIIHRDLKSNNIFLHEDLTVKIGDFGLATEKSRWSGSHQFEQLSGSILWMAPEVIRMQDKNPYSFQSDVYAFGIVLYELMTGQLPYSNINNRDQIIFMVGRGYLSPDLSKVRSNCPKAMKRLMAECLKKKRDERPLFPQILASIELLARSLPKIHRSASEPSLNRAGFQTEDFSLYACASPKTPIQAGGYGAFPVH
Assay comment: Kinase test B-Raf (V600E)
Format: biochemical
Condition: compound concentration 2 μM; 100% = no inhibition, 0% = total inhibition; read-out: % CTL (residual activity of the enzyme relative to DMSO control)
The reader will find reported remaining activity at 2 µM values listed item by item below.
Provide the reading as a plain figure in %.

These recorded examples may help you get a feel for the data.
test_smiles=Cc1ncc(C(=O)Nc2cc(N3CCN(C)CC3)c(C)c(C(F)(F)F)c2)cc1-n1cc(-c2cnn(C)c2C)nn1 target_desc="B-Raf (V600E)-kinase (Homo sapiens, UniProt P15056, V600E)" value=2.1
test_smiles=Cc1ncc(C(=O)Nc2cc(C3=CCN(C)CC3)c(C)c(C(F)(F)F)c2)cc1-n1cc(-c2cnn(C)c2C)nn1 target_desc="B-Raf (V600E)-kinase (Homo sapiens, UniProt P15056, V600E)" value=1.2
test_smiles=Cc1ncc(NC(=O)c2cc(C(F)(F)F)ccn2)cc1-n1cc(-c2cncc(N3CCN(CC(C)C)CC3)c2)nn1 target_desc="B-Raf (V600E)-kinase (Homo sapiens, UniProt P15056, V600E)" value=2.3
test_smiles=COc1cncc(-c2cn(-c3cc(C(=O)Nc4cc(CN5CCCC5)c(Cl)c(C(F)(F)F)c4)cnc3C)nn2)c1 target_desc="B-Raf (V600E)-kinase (Homo sapiens, UniProt P15056, V600E)" value=2.1
test_smiles=COc1c(NC(=O)c2cnc(C)c(-n3cc(-c4cnn(C)c4C)nn3)c2)cc(C(C)(C)C)cc1NS(C)(=O)=O target_desc="B-Raf (V600E)-kinase (Homo sapiens, UniProt P15056, V600E)" value=1.4

Request: remaining activity at 2 µM lookup needed for Cc1ncc(C(=O)Nc2cc(C(F)(F)F)cc(N3CCCOCC3)c2C)cc1-n1cc(-c2cnn(C)c2C)nn1 , thanks.
Response: 2.6

Request: May I ask what remaining activity at 2 µM has been recorded for Cc1cn2c(-c3cn(-c4cc(C(=O)Nc5cc(N6CCN(C)CC6)c(C)c(C(F)(F)F)c5)cnc4C)nn3)cnc2cn1 ?
Response: 3.3

Request: Param item = COc1cncc(-c2cn(-c3cc(NC(=O)c4cccc(C(C)(C)C#N)c4)cnc3C)nn2)c1 ; retrieve measured remaining activity at 2 µM.
Response: 5.2

Request: I am curious: what remaining activity at 2 µM value has been reported for CCOCCN1CCN(c2cncc(-c3cn(-c4cc(NC(=O)c5cccc(OC(F)(F)F)c5)cnc4C)nn3)c2)CC1 ?
Response: 10.8

Request: Which remaining activity at 2 µM value belongs to COc1cncc(-c2cn(-c3cc(C(=O)Nc4ccc(OC)c(C(F)(F)F)c4)cnc3C)nn2)c1 ?
Response: 2.5

Request: May I ask what remaining activity at 2 µM has been recorded for Cc1ncc(C(=O)Nc2cc(C3=CCNCC3)cc(C(F)(F)F)c2)cc1-n1cc(-c2cnn(C)c2C)nn1 ?
Response: 1.3

###

Target desc: B-Raf (V600E)-kinase (Homo sapiens, UniProt P15056, V600E)
Assay comment: Kinase test B-Raf (V600E)
Assay type: biochemical
Condition: compound concentration 2 μM; 100% = no inhibition, 0% = total inhibition; read-out: % CTL (residual activity of the enzyme relative to DMSO control)
Value type: remaining activity at 2 µM
Kindly report the value followed by its unit.

Here is how some compounds turned out for remaining activity at 2 µM.
test_smiles=COc1cncc(-c2cn(-c3cc(NC(=O)c4cc(OC(F)(F)F)cc(N5CCN(C)CC5)c4)cnc3C)nn2)c1 value=0.7%
test_smiles=Cc1ncc(C(=O)Nc2cc(C(C)(C)C)on2)cc1-n1cc(-c2cncc(N3CC[C@@H](N(C)C)C3)c2)nn1 value=2.2%

Then this compound:
Request: Field request: remaining activity at 2 µM | item: CCOCCN1CCN(c2cncc(-c3cn(-c4cc(NC(=O)c5ccc(OC)c(C(F)(F)F)c5)cnc4C)nn3)c2)CC1
Response: 1.9%
